Below: a set of entries, each annotated with reported Papp.
Assay: Permeability of the compound by PAMPA
Type: ADME
Conditions: read-out: permeability
reported_endpoint: Papp (×10⁻⁶ cm/s)

smiles_representation=CCCC[C@H](NC(=O)[C@H](CCCCN)NC(=O)[C@H](CCCNC(=N)N)NC(=O)c1ccc(/C=C2\SC(=O)N(CCc3ccccc3)C2=O)cc1)C(N)=O reported_endpoint=Papp reported_value=0.82
smiles_representation=CCCC[C@H](NC(=O)[C@H](CCCCN)NC(=O)[C@H](CCCNC(=N)N)NC(=O)c1ccc(/C=C2\SC(=O)N(CCCC)C2=O)cc1)C(N)=O reported_endpoint=Papp reported_value=1.18
smiles_representation=CCCC[C@H](NC(=O)[C@H](CCCCN)NC(=O)[C@H](CCCNC(=N)N)NC(=O)c1ccc(/C=C2\SC(=O)N(Cc3ccc(F)cc3)C2=O)cc1)C(N)=O reported_endpoint=Papp reported_value=0.43
smiles_representation=CCCC[C@H](NC(=O)[C@H](CCCCN)NC(=O)[C@H](CCCNC(=N)N)NC(=O)c1ccc(/C=C2\SC(=O)N(c3ccc(C)cc3)C2=O)cc1)C(N)=O reported_endpoint=Papp reported_value=0.66
smiles_representation=CCCC[C@H](NC(=O)[C@H](CCCCN)NC(=O)[C@H](CCCNC(=N)N)NC(=O)c1ccc(/C=C2\SC(=O)N(C3CCCC3)C2=O)cc1)C(N)=O reported_endpoint=Papp reported_value=0.44
smiles_representation=CCCC[C@H](NC(=O)[C@H](CCCCN)NC(=O)[C@H](CCCNC(=N)N)NC(=O)c1ccc(/C=C2\SC(=S)N(Cc3ccc(OC)cc3)C2=O)cc1)C(N)=O reported_endpoint=Papp reported_value=0.6

---

Test: Inhibition of Dengue virus NS2B-NS3 protease expressed in Escherichia coli BL 21 (DE3) using Abz-Nle-Lys-Arg-Arg-Ser-3-(NO2)Tyr as substrate assessed as enzyme-inhibitor complex by Cornish-Bowden plot analysis
Details: in the assay text read “Dixon plot” for “Cornish-Bowden plot”
pKi: −log10 of the molar value. Square brackets hold non-standard residues; d marks the D form. Peptide text beside a SMILES is read from it. * marks the point of attachment. Nle = CCCC[C@H](N)C(=O)O; Bz = O=C(c1ccccc1)*
reported_endpoint: pKi

molecule=CCCC[C@H](NC(=O)[C@H](CCCCN)NC(=O)[C@H](CCCNC(=N)N)NC(=O)c1ccc(/C=C2\SC(=O)N(C3CCCCC3)C2=O)cc1)C(N)=O reported_endpoint=pKi comparative_sign== reported_value=5.64
molecule=CCCC[C@H](NC(=O)[C@H](CCCCN)NC(=O)[C@H](CCCNC(=N)N)NC(=O)c1ccc(/C=C2\SC(=O)N(Cc3ccc(OC)cc3)C2=O)cc1)C(N)=O reported_endpoint=pKi comparative_sign== reported_value=5.66
molecule=CCCC[C@H](NC(=O)[C@H](CCCCN)NC(=O)[C@H](CCCNC(=N)N)NC(=O)c1ccc(/C=C2\SC(=O)N(CCc3ccccc3)C2=O)cc1)C(N)=O reported_endpoint=pKi comparative_sign== reported_value=5.74
molecule=CCCC[C@H](NC(=O)[C@H](CCCCN)NC(=O)[C@H](CCCNC(=N)N)NC(=O)c1ccc(/C=C/C(N)=O)cc1)C(N)=O reported_endpoint=pKi comparative_sign== reported_value=5.09
molecule=CCCC[C@H](NC(=O)[C@H](CCCCN)NC(=O)[C@H](CCCNC(=N)N)NC(=O)c1ccc(/C=C2\SC(=S)N(Cc3ccccc3)C2=O)cc1)C(N)=O reported_endpoint=pKi comparative_sign== reported_value=5.06
molecule=CCCC[C@H](NC(=O)[C@H](CCCCN)NC(=O)[C@H](CCCNC(=N)N)NC(=O)c1ccc(/C=C2\SC(=S)N(Cc3ccc(C)cc3)C2=O)cc1)C(N)=O reported_endpoint=pKi comparative_sign== reported_value=5.21
molecule="CCCCC(C(=O)OC)N1C(=O)/C(=C/c2ccc(C(=O)N[C@@H](CCCNC(=N)N)C(=O)N[C@@H](CCCCN)C(=O)N[C@@H](CCCC)C(N)=O)cc2)SC1=S (stereo not given in full)" reported_endpoint=pKi comparative_sign=< reported_value=5.00
molecule="CCCC[C@H](NC(=O)[C@H](CCCCN)NC(=O)[C@H](CCCNC(=N)N)NC(=O)c1ccccc1)C(N)=O (Bz-Arg-Lys-[Nle]-NH2)" reported_endpoint=pKi comparative_sign== reported_value=4.95
molecule=CCCC[C@H](NC(=O)[C@H](CCCCN)NC(=O)[C@H](CCCNC(=N)N)NC(=O)c1ccc(/C=C2\SC(=S)N(C3CCCC3)C2=O)cc1)C(N)=O reported_endpoint=pKi comparative_sign== reported_value=5.44
molecule=CCCC[C@H](NC(=O)[C@H](CCCCN)NC(=O)[C@H](CCCNC(=N)N)NC(=O)c1ccc(/C=C(\C#N)C(=O)NC2CC2)cc1)C(N)=O reported_endpoint=pKi comparative_sign== reported_value=5.40
molecule=CCCC[C@H](NC(=O)[C@H](CCCCN)NC(=O)[C@H](CCCNC(=N)N)NC(=O)c1ccc(/C=C2\SC(=O)N(Cc3ccc(C)cc3)C2=O)cc1)C(N)=O reported_endpoint=pKi comparative_sign== reported_value=5.51
molecule=CCCC[C@H](NC(=O)[C@H](CCCCN)NC(=O)[C@H](CCCNC(=N)N)NC(=O)c1ccc(/C=C2\SC(=O)N(C3CCCC3)C2=O)cc1)C(N)=O reported_endpoint=pKi comparative_sign== reported_value=5.74
molecule=CCCC[C@H](NC(=O)[C@H](CCCCN)NC(=O)[C@H](CCCNC(=N)N)NC(=O)c1ccc(/C=C2\SC(=O)N(Cc3ccc(Cl)cc3)C2=O)cc1)C(N)=O reported_endpoint=pKi comparative_sign== reported_value=5.66
molecule=CCCC[C@H](NC(=O)[C@H](CCCCN)NC(=O)[C@H](CCCNC(=N)N)NC(=O)c1ccc(/C=C2\SC(=O)N(CCCC)C2=O)cc1)C(N)=O reported_endpoint=pKi comparative_sign== reported_value=5.47
molecule=CCCC[C@H](NC(=O)[C@H](CCCCN)NC(=O)[C@H](CCCNC(=N)N)NC(=O)c1ccc(/C=C2\SC(=S)N(C3CCCCC3)C2=O)cc1)C(N)=O reported_endpoint=pKi comparative_sign== reported_value=5.03
molecule=CCCC[C@H](NC(=O)[C@H](CCCCN)NC(=O)[C@H](CCCNC(=N)N)NC(=O)c1ccc(/C=C2\SC(=O)N(Cc3ccc(F)cc3)C2=O)cc1)C(N)=O reported_endpoint=pKi comparative_sign== reported_value=5.82
molecule=CCCC[C@H](NC(=O)[C@H](CCCCN)NC(=O)[C@H](CCCNC(=N)N)NC(=O)c1ccc(/C=C2\SC(=S)N(CCCC)C2=O)cc1)C(N)=O reported_endpoint=pKi comparative_sign== reported_value=5.33
molecule=CCCC[C@H](NC(=O)[C@H](CCCCN)NC(=O)[C@H](CCCNC(=N)N)NC(=O)/C=C/c1ccccc1)C(N)=O reported_endpoint=pKi comparative_sign== reported_value=5.16
molecule=CCCC[C@H](NC(=O)[C@H](CCCCN)NC(=O)[C@H](CCCNC(=N)N)NC(=O)c1cccs1)C(N)=O reported_endpoint=pKi comparative_sign== reported_value=4.84
molecule=CCCC[C@H](NC(=O)[C@H](CCCCN)NC(=O)[C@H](CCCNC(=N)N)NC(=O)c1ccc(/C=C2\SC(=S)N(Cc3ccc(F)cc3)C2=O)cc1)C(N)=O reported_endpoint=pKi comparative_sign=< reported_value=5.00
molecule=CCCC[C@H](NC(=O)[C@H](CCCCN)NC(=O)[C@H](CCCNC(=N)N)NC(=O)c1ccc(/C=C2\SC(=S)N(Cc3ccc(Cl)cc3)C2=O)cc1)C(N)=O reported_endpoint=pKi comparative_sign=< reported_value=5.00
molecule=CCCC[C@H](NC(=O)[C@H](CCCCN)NC(=O)[C@H](CCCNC(=N)N)NC(=O)c1ccc(/C=C2\SC(=S)N(Cc3ccc(OC)cc3)C2=O)cc1)C(N)=O reported_endpoint=pKi comparative_sign== reported_value=5.11
molecule=CCCC[C@H](NC(=O)[C@H](CCCCN)NC(=O)[C@H](CCCNC(=N)N)NC(=O)c1ccc(/C=C2\SC(=O)N(Cc3ccccc3)C2=O)cc1)C(N)=O reported_endpoint=pKi comparative_sign== reported_value=5.77
molecule=CCCC[C@H](NC(=O)[C@H](CCCCN)NC(=O)[C@H](CCCNC(=N)N)NC(=O)c1ccc(/C=C2\SC(=O)N(CCOC(C)=O)C2=O)cc1)C(N)=O reported_endpoint=pKi comparative_sign== reported_value=5.44
molecule=CCCC[C@H](NC(=O)[C@H](CCCCN)NC(=O)[C@H](CCCNC(=N)N)NC(=O)c1ccc(/C=C2\SC(=S)N(CCc3ccccc3)C2=O)cc1)C(N)=O reported_endpoint=pKi comparative_sign== reported_value=4.87
